tested on: NCI/ADR-RES ovarian; experiment: NCI tumour cell line growth inhibition, 48 h
The entries below come with measured TGI values attached.

• O=C1CCCC2=C(N1)C(=O)C=CC2=O = > 70.5 µM

Q) For the molecule shown here, Cn1cccc1-c1cc(-c2cccs2)[nH]c(=O)c1C#N , give the reported TGI.
A) > 100 µM

Q) Follow-up entry: NC(CNO)C(=O)O (stereo not drawn)
A) > 100 µM

###

The entries below come with measured TGI values attached.
system: OVCAR-3 ovarian; assay: NCI tumour cell line growth inhibition, 48 h
Only the number, expressed in µM, is required.

* O=C(Nc1nccs1)c1cc2c(cc1Cl)Sc1nccn1S2(=O)=O | 28.3
* N#CC1=C(S)N(C2OC(CO)C(O)C(O)C2O)C(c2ccccc2)=CC1c1ccccc1 (configuration not stated) | 98.5
* CN(C)CCn1c(=O)c2ccc3c4c(nn3CCN(C)C)c3cc(N)ccc3n(c1=O)c24 | 0.164

Q) For the compound shown here, CC[C@@]1(O)C(=O)OCc2c1cc1n(c2=O)Cc2c-1nc1ccc(O)cc1c2CC[Si](C)(C)C , give the reported TGI.
A) 0.127

Q) Follow-up entry: CN1CCC[C@@H]1CCO[C@](C)(c1ccccc1)c1ccc(Cl)cc1
A) 20.8

Q) Follow-up entry: COc1ccc(/C(C)=C(\c2ccc(Cl)cc2)c2ccc(OCCN3CCCC3)cc2)cc1F
A) 8.38

Q) Follow-up entry: O=S(=O)(/N=C(\NO)Nc1ccc(Cl)cc1)c1ccc(S(=O)(=O)c2ccccc2)s1
A) 55.9

Q) Follow-up entry: c1cc(OCCN2CCCCCC2)ccc1CNc1ccc2nc(CCC3CCCCC3)[nH]c2c1
A) 4.25

Q) Follow-up entry: Cc1ccc(S(=O)(=O)/N=c2\ssc(Nc3ccccc3)c2Cl)cc1
A) 20.2

Q) Follow-up entry: CCN(CC)CCOc1ccc(/C(=C(\C)Cc2ccc(OC)cc2)c2ccc(OC(=O)NCc3ccccc3)cc2)cc1
A) 3.47

Q) Follow-up entry: Oc1c2cc(Br)cc1CCc1cc(Br)cc(c1O)CC2
A) 48.8

Q) Follow-up entry: CCCCCC(O)[C@H]1C(=O)C[C@@H](O[Si](C)(C)C(C)(C)C)[C@@H]1/C=C/CCOCc1ccccc1 (some centres not stated)
A) 28.1

Q) Follow-up entry: CCOC(=O)c1ccc(N(CCOS(C)(=O)=O)CCOS(C)(=O)=O)cc1C
A) 44

###

tested on: ACHN renal; experiment: NCI tumour cell line growth inhibition, 48 h
metric.name: GI50

- COc1cc2ccc3c4c(OC)cc(OC)c(OC)c4c(=O)n(C)c3c2cc1OC: 4880 nM
- C=C1C(=O)O[C@H]2[C@H]1CC/C(COC(=O)CCCCCCCCC(=O)OC/C1=C/CC[C@@]3(C)O[C@H]3[C@H]3OC(=O)C(=C)[C@@H]3CC1)=C\CC[C@@]1(C)O[C@@H]21: 1800 nM
- COc1cc(C#N)cc(OC)c1OCCOCCOc1c(OC)cc(C#N)cc1OC: > 100000 nM
- CN[C@]12CC3(C=CC(=O)C=C3)O[C@@]1(Cc1ccc(OC)cc1)N(C)C(=O)N2: 1670 nM
- C#CCN=C(N/N=C/c1ccc([N+](=O)[O-])o1)NS(=O)(=O)c1cc(C)c(Cl)cc1SCC(N)=O: 16700 nM
- c1cc(OCCN2CCCCCC2)ccc1CNc1ccc2nc(CCC3CCCCC3)[nH]c2c1: 2680 nM

Attention now turns to another entry.
Q) For the molecule shown here, COc1ccc(N(CC(=O)NCCC[Te]c2ccccc2)C(=O)CCSC2=C(C)C(=O)c3ccccc3C2=O)cc1 , give the reported GI50.
A) 1570 nM
